substances and their reported % change in SGLT2 expression relative to saline
Tested on: mouse SGLT2 mRNA
Test: Mouse SGLT2 mRNA in kidney, 1-10-1 MOE gapmers, Balb/c mice (Table 65)
Format: in vivo
Details: 150 nmol/kg i.p. twice per week for two weeks
Strand notation (5' to 3'): a small letter for the sugar, then the base; units joined by * are phosphorothioate-linked, units joined directly phosphodiester-linked; [ ] holds rarer units or linkages, { } end groups; capitals alone tell only the bases. e = 2'-O-(2-methoxyethyl) (MOE); [5mC] = 5-methylcytosine; d = 2'-deoxy (DNA)
observable: % change in SGLT2 expression relative to saline (%)

>  <substance>
ISIS 379702 (eG*d[5mC]*dA*d[5mC]*dA*d[5mC]*dA*dG*d[5mC]*dT*dG*e[5mC])

>  <assayResult>
−72.5

$$$$
>  <substance>
ISIS 379692: 1-10-1 MOE gapmer, SGLT2 (eT*dG*dT*dT*d[5mC]*d[5mC]*dA*dG*d[5mC]*d[5mC]*d[5mC]*eA)

>  <assayResult>
−70

$$$$
>  <substance>
ISIS 379699: GGCATGAGCTTC 1-10-1 MOE, SGLT2 (eG*dG*d[5mC]*dA*dT*dG*dA*dG*d[5mC]*dT*dT*e[5mC])

>  <assayResult>
−62.5

$$$$
>  <substance>
ISIS 370717: TAGCCACCAACT 1-10-1 MOE gapmer, phosphorothioate, SGLT-2 (sugars from the 5' end e1 d10 e1, all phosphorothioate, methylation of C not given here)

>  <assayResult>
−55

$$$$

Reference source: patent US8372967B2
